System: SKOV-3 cells
Assay Method Text: Cell proliferation (MTT) assay
Type: cell-based, human
Condition Info: Homo sapiens, SK-OV-3, 96 h, 4 days at 37 °C, 0.1 nM–10 µM, medium with 2% BCS, mean ± spread, Con-3 and mitoxantrone n = 3 experiments, Con-7 n = five, read-out: IC50, proliferation of SKOV-3 cells, day 4
Quantity Kind: IC50 (nM)
Give bare numbers, in nM.

Req: Looking for the measured IC50 of "O=C1c2c(O)ccc(O)c2C(=O)c2c(NCCNCCO)ccc(NCCNCCO)c21" , can you help?
Resp: 280

---

Test system: SKOV-3 cells
Assay Method Text: Cell proliferation (MTT) assay
Type: cell-based, human
Condition Info: Homo sapiens, SK-OV-3, 72 h, 3 days at 37 °C, 0.1 nM–10 µM, medium with 2% BCS, mean ± spread, Con-3 and mitoxantrone n = 3 experiments, Con-7 n = five, read-out: IC50, proliferation of SKOV-3 cells, day 3
Quantity Kind: IC50 (nM)
One number for each entry, in nM.

Req: Looking for the measured IC50 of "O=C1c2c(O)ccc(O)c2C(=O)c2c(NCCNCCO)ccc(NCCNCCO)c21" , can you help?
Resp: 420
